assay-info: Activity at beta2 adrenoceptor/muscarinic M3 receptor in guinea pig trachea assessed as inhibition of electric fileld-stimulated contraction
Parameters: species or system Cavia porcellus
Reported EC50 by item:
Entry rule: numbers only, all in nM.

Below: 2 molecules and their reported EC50.
# input molecule: O=c1ccc2c([C@@H](O)CNCCc3ccc(CCN4CCC(Cn5cnc([C@](O)(c6ccccc6)C6CCCCC6)n5)CC4)cc3)ccc(O)c2[nH]1 ; wanted: its EC50
11.5

# input molecule: OCc1cc(C(O)CNCCCCCCOCCCCc2ccccc2)ccc1O (stereo not drawn) [SALMETEROL] ; wanted: its EC50
6.9

Proceed to the following item.
# input molecule: CC(C)[N+]1(C)[C@@H]2CC[C@H]1C[C@@H](OC(=O)C(CO)c1ccccc1)C2 (stereo partly drawn) [IPRATROPIUM] ; wanted: its EC50
1.2
